Listing of entries alongside the reported IC50.
# experimental.target: HDAC6 human recombinant enzyme (Homo sapiens (Human))
# protocol: Histone Deacetylase Assay (BPS Biosciences), HDAC6
Where a name gives a salt, the structure may show the parent alone.
metric.name: IC50 (nM)

molecule="O=C(NO)c1cnc(N2CCC(CNC3CC3c3ccc(F)cc3)CC2)nc1 (stereo not drawn) [Example 8, TFA Salt]" qual== quantitative_result=88
molecule="Nc1ccccc1NC(=O)c1ccc(CCCn2cnc(CNC3CC3c3ccccc3)c2)cc1 (stereo not drawn) [Example 136, TFA Salt]" qual=> quantitative_result=10000
molecule="Nc1ccccc1NC(=O)c1ccc(CC(=O)N2CCC(CNC3CC3c3ccc(F)cc3)CC2)cc1 (stereo not drawn) [Example 147, TFA Salt]" qual=> quantitative_result=10000
molecule="COc1ccc(C2CC2NCC2CCN(CCCc3ccc(C(=O)NO)cc3)CC2)cc1 (stereo not drawn) [Example 51, TFA Salt]" qual== quantitative_result=38
molecule="O=C(NO)c1ccc(C(=O)NCCN2CCC(CNC3CC3c3ccc(F)c(F)c3)CC2)cc1 (stereo not drawn) [Example 90, TFA Salt]" qual== quantitative_result=170
molecule="O=C(NO)c1ccc(CCCN2CCC(CNC3CC3c3ccc(-c4ccc(F)cc4)cc3)CC2)cc1 (stereo not drawn) [Example 57, TFA Salt]" qual== quantitative_result=59
molecule="Nc1ccccc1NC(=O)c1ccc(CCCN2CC3(CC(NC4CC4c4ccccc4)C3)C2)cc1 (stereo not drawn) [Example 127, TFA Salt]" qual=> quantitative_result=10000
molecule="O=C(NO)c1cnc(CCCN2CCC(CNC3CC3c3ccccc3)CC2)s1 (stereo not drawn) [Example 112, TFA Salt]" qual== quantitative_result=517
molecule="O=C(NO)c1ccc(CCCC2CCN(C(=O)CNC3CC3c3ccccc3)CC2)cc1 (stereo not drawn) [Example 93, TFA Salt]" qual== quantitative_result=187
molecule="O=C(NO)C1CCC(NC2CC2c2ccccc2)CC1 (stereo not drawn) [Example 33, TFA Salt]" qual=> quantitative_result=1000
molecule="O=C(NO)c1ccc(CCCN2CCC(CNC3CC3c3ccc(OCc4ccc(F)cc4)cc3)CC2)cc1 (stereo not drawn) [Example 52, TFA Salt]" qual== quantitative_result=12
molecule="O=C(NO)c1ccc(CCS(=O)(=O)N2CCC(CNC3CC3c3ccccc3)CC2)cc1 (stereo not drawn) [Example 88, TFA Salt]" qual== quantitative_result=77
molecule="Nc1ccccc1NC(=O)c1ccc(CCC(=O)N2CCC(CNC3CC3c3ccccc3)CC2)cc1 (stereo not drawn) [Example 134, TFA Salt]" qual=> quantitative_result=10000
molecule="O=C(NO)c1ccc(/C=C/C(=O)N2CCC(CN[C@H]3C[C@@H]3c3ccccc3)CC2)cc1 [Example 114B, TFA Salt]" qual== quantitative_result=33
molecule="CC(C)n1cc(C2CC2NCC2CCN(CCCc3ccc(C(=O)NO)cc3)CC2)cn1 (stereo not drawn) [Example 67, TFA Salt]" qual== quantitative_result=272
molecule="CC(C)n1cc(C2CC2NCC2CCN(CCCc3ccc(C(=O)Nc4ccccc4N)cc3)CC2)cn1 (stereo not drawn) [Example 128, TFA Salt]" qual=> quantitative_result=10000
molecule="COc1ccc(C2CC2NCc2cn3c(n2)CN(CCCc2ccc(C(=O)NO)cc2)CC3)cc1 (stereo not drawn) [Example 71, TFA Salt]" qual== quantitative_result=28
molecule="Nc1ccccc1NC(=O)c1ccc(S(=O)(=O)N2CCC(CNC3CC3c3ccccc3)CC2)cc1 (stereo not drawn) [Example 160, TFA Salt]" qual=> quantitative_result=10000
molecule="Nc1ccccc1NC(=O)c1ccc(CCN2CCC(CNC3CC3c3ccccc3)CC2)cc1 (stereo not drawn) [Example 139, TFA Salt]" qual=> quantitative_result=10000
molecule="Cc1noc(C)c1-c1ccc(C2CC2NCC2CCN(Cc3ccc(C(=O)Nc4ccccc4N)cc3)CC2)cc1 (stereo not drawn) [Example 143, TFA Salt]" qual=> quantitative_result=10000
molecule="Cn1ccc(-c2ccc(C3CC3NCC3CCN(CCCc4ccc(C(=O)NO)cc4)CC3)cc2)cc1=O (stereo not drawn) [Example 60, TFA Salt]" qual== quantitative_result=46
molecule="O=C(NO)c1ccc(OCCNC2CC2c2ccccc2)cc1 (stereo not drawn) [Example 95, TFA Salt]" qual== quantitative_result=350
molecule="Cn1cc(-c2ccc(C3CC3NCC3CCN(Cc4ccc(C(=O)Nc5ccccc5N)cc4)CC3)cc2)ccc1=O (stereo not drawn) [Example 141, TFA Salt]" qual=> quantitative_result=10000
molecule="CN(C)CCNC(=O)c1ccc(C2CC2NCC2CCN(CCCc3ccc(C(=O)NO)cc3)CC2)cc1 (stereo not drawn) [Example 55, TFA Salt]" qual== quantitative_result=130
molecule="O=C(NO)c1ccc(/C=C/C(=O)N2CCC(CN[C@H]3C[C@@H]3c3ccc(F)cc3)CC2)cc1 [Example 115, TFA Salt]" qual== quantitative_result=53
molecule="O=C(NO)c1ccc(CCCN2CC(CNC3CC3c3ccc(-c4ccc(F)cc4)cc3)C2)cc1 (stereo not drawn) [Example 58, TFA Salt]" qual== quantitative_result=43
molecule="Nc1ccccc1NC(=O)c1ccc(Cn2cc(CNC3CC3c3ccccc3)cn2)cc1 (stereo not drawn) [Example 145, TFA Salt]" qual=> quantitative_result=10000
molecule="O=C(NO)c1ccc(CCC(=O)N2CCC(CNC3CC3c3ccccc3)CC2)cc1 (stereo not drawn) [Example 82, TFA Salt]" qual== quantitative_result=35
molecule="O=C(NO)c1ccc(/C=C/C(=O)N2CC(CNC3CC3c3ccc(F)cc3)C2)cc1 (stereo not drawn) [Example 118, TFA Salt]" qual== quantitative_result=58
molecule="O=C(NO)c1ccc(CCCn2cc(CNC3CC3c3ccccc3)nn2)cc1 (stereo not drawn) [Example 77, TFA Salt]" qual== quantitative_result=71

###

# experimental.target: HDAC6 human recombinant enzyme (Homo sapiens (Human), UniProt Q9UBN7)
# Sequence (Q9UBN7 whole entry): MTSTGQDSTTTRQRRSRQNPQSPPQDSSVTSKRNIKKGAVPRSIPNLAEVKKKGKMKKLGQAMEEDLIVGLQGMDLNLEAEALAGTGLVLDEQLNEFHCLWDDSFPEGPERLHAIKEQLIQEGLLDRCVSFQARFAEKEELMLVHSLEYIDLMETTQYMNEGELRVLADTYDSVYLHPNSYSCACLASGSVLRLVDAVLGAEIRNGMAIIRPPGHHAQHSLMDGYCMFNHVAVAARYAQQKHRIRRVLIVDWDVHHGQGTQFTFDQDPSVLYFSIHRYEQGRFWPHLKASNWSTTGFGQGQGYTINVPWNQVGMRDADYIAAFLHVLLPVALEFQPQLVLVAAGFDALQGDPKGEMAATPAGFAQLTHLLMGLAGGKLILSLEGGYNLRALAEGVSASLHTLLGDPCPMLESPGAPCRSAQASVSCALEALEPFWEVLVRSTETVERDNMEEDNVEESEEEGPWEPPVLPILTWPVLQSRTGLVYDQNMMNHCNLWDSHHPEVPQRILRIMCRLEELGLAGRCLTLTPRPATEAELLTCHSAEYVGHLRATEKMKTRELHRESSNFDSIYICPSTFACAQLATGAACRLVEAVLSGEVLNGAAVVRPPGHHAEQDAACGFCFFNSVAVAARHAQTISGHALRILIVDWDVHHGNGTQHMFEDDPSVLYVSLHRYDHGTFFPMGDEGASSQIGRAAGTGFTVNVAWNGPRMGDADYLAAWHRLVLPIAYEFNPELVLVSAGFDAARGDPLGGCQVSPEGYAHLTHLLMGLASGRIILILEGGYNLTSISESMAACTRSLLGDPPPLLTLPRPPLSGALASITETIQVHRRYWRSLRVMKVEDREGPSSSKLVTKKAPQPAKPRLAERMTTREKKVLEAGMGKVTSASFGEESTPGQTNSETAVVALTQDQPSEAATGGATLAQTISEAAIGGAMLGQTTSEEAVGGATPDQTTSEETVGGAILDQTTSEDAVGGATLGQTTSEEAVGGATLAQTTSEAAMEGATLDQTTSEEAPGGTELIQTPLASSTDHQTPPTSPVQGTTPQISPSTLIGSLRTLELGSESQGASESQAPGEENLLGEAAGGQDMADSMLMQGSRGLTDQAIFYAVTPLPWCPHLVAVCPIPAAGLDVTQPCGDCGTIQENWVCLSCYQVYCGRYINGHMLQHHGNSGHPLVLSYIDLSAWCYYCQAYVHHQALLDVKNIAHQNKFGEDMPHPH
# protocol: Histone Deacetylase Assay (BPS Biosciences), HDAC6
# Assay type: biochemical
Structures can show the parent of a compound that is named as a salt.
metric.name: IC50 (nM)

molecule="O=C(NO)c1ccc(C(=O)NCCN2CCC(CNC3CC3c3ccccc3)CC2)cc1 (stereo not drawn) [Example 89, TFA Salt]" metric_name=IC50 qual== quantitative_result=720
molecule="Nc1ccccc1NC(=O)c1ccc2c(c1)CN(C(=O)CNC1CC1c1ccc(F)cc1)CC2 (stereo not drawn) [Example 152, TFA Salt]" metric_name=IC50 qual=> quantitative_result=10000
molecule="O=C(NO)c1ccc(OCCN2CCC(CNC3CC3c3ccc(-c4ccc(F)cc4)cc3)CC2)nc1 (stereo not drawn) [Example 98, TFA Salt]" metric_name=IC50 qual== quantitative_result=5960
molecule="Nc1ccccc1NC(=O)c1ccc(CN2CCC(CNC3CC3c3ccc(-c4cncnc4)cc3)CC2)cc1 (stereo not drawn) [Example 144, TFA Salt]" metric_name=IC50 qual=> quantitative_result=10000
molecule="O=C(NO)c1cc2c(s1)CCN(C(=O)CN[C@@H]1C[C@H]1c1ccc(F)cc1)C2 [Example 103A, TFA Salt]" metric_name=IC50 qual== quantitative_result=22
molecule="O=C(NO)c1ccc(CCCN2CCC(CNC3CC3c3ccc(-c4cncnc4)cc3)CC2)cc1 (stereo not drawn) [Example 61, TFA Salt]" metric_name=IC50 qual== quantitative_result=121
molecule="O=C(NO)c1ccc(CC(=O)N2CCC(CN[C@@H]3C[C@H]3c3ccccc3)CC2)cc1 [Example 84A, TFA Salt]" metric_name=IC50 qual== quantitative_result=22
molecule="Nc1ccccc1NC(=O)c1ccc(CCCn2cc(CNC3CC3c3ccccc3)cn2)cc1 (stereo not drawn) [Example 138, TFA Salt]" metric_name=IC50 qual=> quantitative_result=10000
molecule="O=C(NO)c1csc(CCCN2CCC(CNC3CC3c3ccccc3)CC2)n1.O=C(O)C(F)(F)F (stereo not drawn) [Example 110, TFA Salt]" metric_name=IC50 qual=> quantitative_result=10000
molecule="Nc1ccccc1NC(=O)c1ccc(CCC(=O)N2CCC(NC3CC3c3ccccc3)CC2)cc1 (stereo not drawn) [Example 133, TFA Salt]" metric_name=IC50 qual=> quantitative_result=10000
molecule="CN1C(=O)C(C)(C)c2cc(C3CC3NCC3CCN(CCCc4ccc(C(=O)NO)cc4)CC3)ccc21 (stereo not drawn) [Example 81, TFA Salt]" metric_name=IC50 qual== quantitative_result=125
molecule="O=C(NO)c1ccc(S(=O)(=O)N2CCC(CNC3CC3c3ccccc3)CC2)cc1 (stereo not drawn) [Example 85, TFA Salt]" metric_name=IC50 qual== quantitative_result=575
molecule="Nc1ccccc1NC(=O)c1ccc(CCCn2cnc(CNC3CC3c3ccc(F)c(F)c3)c2)cc1 (stereo not drawn) [Example 135, TFA Salt]" metric_name=IC50 qual=> quantitative_result=10000
molecule="Cn1cc(-c2ccc(C3CC3NCC3CCN(CCCc4ccc(C(=O)NO)cc4)CC3)cc2)cn1 (stereo not drawn) [Example 62, TFA Salt]" metric_name=IC50 qual== quantitative_result=66
molecule="O=C(NO)c1cc2c(s1)CCN(C(=O)CCCN1CCC(CNC3CC3c3ccc(F)cc3)CC1)C2 (stereo not drawn) [Example 106, TFA Salt]" metric_name=IC50 qual== quantitative_result=35
